Form field: DC50 (one value per entry).
molecular target: SMARCA2-HiBiT (Homo sapiens); construct: SMARCA2-HiBiT knock-in Hela monoclonal cell (CS302366); host or cells: HeLa monoclonal knock-in line (CRISPR HiBiT knock-in at the endogenous locus, heterozygous); assay: SMARCA2 HiBiT degradation assay in HeLa cells; type: cell-based; conditions: 18 hours incubation, read-out: HeLa_HiBit-SM2 DC50
Sequence (P51531 whole entry): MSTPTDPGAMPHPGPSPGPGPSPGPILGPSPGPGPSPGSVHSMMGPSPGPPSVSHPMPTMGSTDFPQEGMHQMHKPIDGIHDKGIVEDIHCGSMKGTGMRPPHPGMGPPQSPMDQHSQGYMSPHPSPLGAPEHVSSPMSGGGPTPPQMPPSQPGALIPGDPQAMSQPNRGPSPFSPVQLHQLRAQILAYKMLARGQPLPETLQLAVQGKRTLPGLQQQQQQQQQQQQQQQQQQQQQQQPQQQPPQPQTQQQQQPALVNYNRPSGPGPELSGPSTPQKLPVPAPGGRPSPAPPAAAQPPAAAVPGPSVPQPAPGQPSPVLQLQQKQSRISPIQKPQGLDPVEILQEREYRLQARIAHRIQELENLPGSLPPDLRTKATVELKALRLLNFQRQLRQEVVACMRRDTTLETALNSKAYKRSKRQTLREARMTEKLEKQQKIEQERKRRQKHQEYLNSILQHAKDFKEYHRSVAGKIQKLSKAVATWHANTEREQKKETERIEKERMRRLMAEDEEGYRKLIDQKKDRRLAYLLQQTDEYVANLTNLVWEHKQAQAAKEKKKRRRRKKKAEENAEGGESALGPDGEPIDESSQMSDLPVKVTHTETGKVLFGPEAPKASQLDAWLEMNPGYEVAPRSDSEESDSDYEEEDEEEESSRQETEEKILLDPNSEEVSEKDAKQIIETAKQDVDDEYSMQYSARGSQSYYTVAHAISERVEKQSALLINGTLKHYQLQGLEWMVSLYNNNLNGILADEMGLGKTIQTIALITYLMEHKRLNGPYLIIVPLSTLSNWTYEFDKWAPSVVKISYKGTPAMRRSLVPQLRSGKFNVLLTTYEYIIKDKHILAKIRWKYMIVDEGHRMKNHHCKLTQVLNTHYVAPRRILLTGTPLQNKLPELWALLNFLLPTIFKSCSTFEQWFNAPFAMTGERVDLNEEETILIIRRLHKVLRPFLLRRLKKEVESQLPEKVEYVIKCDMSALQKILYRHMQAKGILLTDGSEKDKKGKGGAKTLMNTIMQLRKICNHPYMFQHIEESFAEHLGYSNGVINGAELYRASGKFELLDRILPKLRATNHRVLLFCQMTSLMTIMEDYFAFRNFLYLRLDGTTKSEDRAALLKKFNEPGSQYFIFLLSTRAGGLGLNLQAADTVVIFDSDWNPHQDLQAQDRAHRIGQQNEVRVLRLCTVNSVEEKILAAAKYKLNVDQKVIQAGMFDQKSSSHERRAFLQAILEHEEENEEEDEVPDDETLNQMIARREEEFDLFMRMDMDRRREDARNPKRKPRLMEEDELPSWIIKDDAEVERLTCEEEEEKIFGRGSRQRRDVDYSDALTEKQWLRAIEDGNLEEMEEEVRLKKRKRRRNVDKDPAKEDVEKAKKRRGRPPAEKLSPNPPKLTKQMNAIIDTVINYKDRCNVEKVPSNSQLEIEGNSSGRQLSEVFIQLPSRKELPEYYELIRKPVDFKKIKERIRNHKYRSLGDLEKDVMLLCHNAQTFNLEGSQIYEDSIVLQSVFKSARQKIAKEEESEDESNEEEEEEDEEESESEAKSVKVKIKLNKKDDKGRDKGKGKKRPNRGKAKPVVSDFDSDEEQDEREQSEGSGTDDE

Examples with their reported DC50 follow.
O=C1CCC(N2C(=O)c3ccc(N4CCC(CN5CC6COCC(C5)C6CN5CCN6c7cc(-c8ccccc8O)nnc7NC[C@H]6C5)CC4)cc3C2=O)C(=O)N1 (stereo partly drawn)	< 10 nM
O=C1CCC(N2C(=O)c3ccc(N4CC(CN5CCC(CN6CCN7c8cc(-c9ccccc9O)nnc8NC[C@H]7C6)CC5)C4)cc3C2=O)C(=O)N1 (stereo partly drawn)	< 10 nM

Now, please, on to the next molecule.
Enquiry: For the molecule C[C@H]1CN(CC2CCN(c3ccc4c(c3)C(=O)N(C3CCC(=O)NC3=O)C4=O)CC2)CCN1C(=O)N1CCN2c3cc(-c4ccccc4O)nnc3NC[C@H]2C1 (stereo partly drawn) , give its reported DC50.
Return: < 10 nM

----------
target: SMARCA4-HiBiT (Homo sapiens, UniProt P51532); construct: SMARCA4-HiBiT knock-in Hela monoclonal cell (CS3023226); host or cells: HeLa monoclonal knock-in line (CRISPR HiBiT knock-in at the endogenous locus, heterozygous); test: SMARCA4 HiBiT degradation assay in HeLa cells; format: cell-based; conditions: HeLa, 18 hours incubation, read-out: HeLa-HiBit-SM4 Dmax (%)
Sequence (P51532 whole entry): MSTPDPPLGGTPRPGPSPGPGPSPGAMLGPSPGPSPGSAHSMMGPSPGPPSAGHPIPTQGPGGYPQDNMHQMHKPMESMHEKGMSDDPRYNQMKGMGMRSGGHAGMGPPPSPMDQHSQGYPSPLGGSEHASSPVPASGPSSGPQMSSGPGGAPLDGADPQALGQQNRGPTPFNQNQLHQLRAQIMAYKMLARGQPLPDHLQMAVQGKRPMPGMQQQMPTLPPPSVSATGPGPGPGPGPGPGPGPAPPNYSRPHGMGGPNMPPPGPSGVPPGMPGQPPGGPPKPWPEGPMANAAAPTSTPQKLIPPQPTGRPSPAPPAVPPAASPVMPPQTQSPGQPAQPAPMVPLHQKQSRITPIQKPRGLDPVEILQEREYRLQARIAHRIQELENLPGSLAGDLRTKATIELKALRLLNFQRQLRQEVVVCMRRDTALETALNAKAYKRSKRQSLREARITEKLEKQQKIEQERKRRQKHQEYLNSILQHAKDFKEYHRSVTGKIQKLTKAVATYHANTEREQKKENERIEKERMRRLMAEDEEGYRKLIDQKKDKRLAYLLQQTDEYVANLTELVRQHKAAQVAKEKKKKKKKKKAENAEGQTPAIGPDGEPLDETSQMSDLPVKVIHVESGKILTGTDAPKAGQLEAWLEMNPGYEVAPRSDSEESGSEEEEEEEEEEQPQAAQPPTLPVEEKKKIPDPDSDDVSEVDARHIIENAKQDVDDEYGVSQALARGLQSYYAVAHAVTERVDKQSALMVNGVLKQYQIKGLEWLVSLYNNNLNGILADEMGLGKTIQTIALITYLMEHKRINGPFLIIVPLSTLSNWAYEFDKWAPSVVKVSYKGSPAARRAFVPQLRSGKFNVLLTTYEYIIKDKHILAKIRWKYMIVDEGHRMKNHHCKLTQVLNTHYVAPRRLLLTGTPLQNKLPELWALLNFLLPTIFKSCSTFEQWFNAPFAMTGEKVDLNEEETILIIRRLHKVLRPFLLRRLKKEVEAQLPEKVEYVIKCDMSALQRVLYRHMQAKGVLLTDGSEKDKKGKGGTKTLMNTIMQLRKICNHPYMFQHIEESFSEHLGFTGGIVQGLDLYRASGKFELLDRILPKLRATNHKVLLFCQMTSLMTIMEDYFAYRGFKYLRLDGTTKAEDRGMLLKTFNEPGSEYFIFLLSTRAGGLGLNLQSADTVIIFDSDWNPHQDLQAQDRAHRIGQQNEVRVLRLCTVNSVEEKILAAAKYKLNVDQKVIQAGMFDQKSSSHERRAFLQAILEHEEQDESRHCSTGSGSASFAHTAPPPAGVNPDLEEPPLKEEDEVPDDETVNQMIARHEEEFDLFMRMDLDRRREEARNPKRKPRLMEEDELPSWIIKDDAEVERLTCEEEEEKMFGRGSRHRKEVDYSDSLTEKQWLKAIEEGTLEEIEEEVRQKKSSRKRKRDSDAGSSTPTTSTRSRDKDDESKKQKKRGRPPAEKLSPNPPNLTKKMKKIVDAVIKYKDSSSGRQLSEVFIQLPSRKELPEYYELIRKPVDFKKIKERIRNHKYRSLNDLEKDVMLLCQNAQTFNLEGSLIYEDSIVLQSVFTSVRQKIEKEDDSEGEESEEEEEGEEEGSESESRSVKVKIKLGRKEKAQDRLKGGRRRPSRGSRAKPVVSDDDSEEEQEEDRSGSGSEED
Known Dmax of a selection of molecules

Enquiry: Indicate the recorded Dmax value for this molecule: O=C1CCC(N2Cc3ccc(N4CCC(CN5Cc6cnc(N7CCN8c9cc(-c%10ccccc%10O)nnc9NC[C@H]8C7)nc6C5)CC4)cc3C2=O)C(=O)N1 (stereo partly drawn) [Example 61]
Return: ≤ 50%

Enquiry: Please look at this molecule and report its Dmax: O=C1CCC(N2C(=O)c3ccc(N4CCC(CN5CCC(NC(=O)N6CCN7c8cc(-c9ccccc9O)nnc8NC[C@H]7C6)CC5)CC4)cc3C2=O)C(=O)N1 (stereo partly drawn) [Example 80]
Return: > 85%

Enquiry: Item O=C1CCC(N2C(=O)c3ccc(N4CCC(CN5CCC(CN6CCN7c8cc(-c9ccccc9O)nnc8NC[C@H]7C6)CC5)C4)cc3C2=O)C(=O)N1 (stereo partly drawn) [Example 225] : provide Dmax
Return: > 85%

----------
# Dmax per entry
Biological target: SMARCA2-HiBiT (Homo sapiens)
Construct: SMARCA2-HiBiT knock-in Hela monoclonal cell (CS302366); host or cells: HeLa monoclonal knock-in line (CRISPR HiBiT knock-in at the endogenous locus, heterozygous)
Test: SMARCA2 HiBiT degradation assay in HeLa cells
Assay type: cell-based
Settings: HeLa, 18 hours incubation, read-out: HeLa-HiBit-SM2 Dmax (%)
Method: HiBiT peptide knock-in of SMARCA2 in LgBiT expressing HEK293T cells was performed by CRISPR-mediated tagging system as described Promega. The homozygous HiBiT knock-in on c-terminus SMARCA2 was confirmed by sanger sequence. SMARCA2-HiBiT knock-in Hela monoclonal cell (CS302366) and SMARCA4-HiBiT knock-in Hela monoclonal cell (CS3023226) were purchased from Promega. The heterozygous HiBiT-knock-in was confirmed by sanger sequence in both SMARCA2-HiBiT and SMARCA4-HiBiT monoclonal cells. […]

O=C1CCC(N2C(=O)c3ccc(N4CCC(CN5CCC(CN6CCN7c8cc(-c9ccccc9O)nnc8NC[C@H]7C6)CC5)C4)cc3C2=O)C(=O)N1 (stereo partly shown)	> 85%

Enquiry: Note down Dmax recorded for O=C1CCC(N2C(=O)c3ccc(N4CCC(CN5CCC(NC(=O)N6CCN7c8cc(-c9ccccc9O)nnc8NC[C@H]7C6)CC5)CC4)cc3C2=O)C(=O)N1 (stereo partly shown)
Return: > 85%

Enquiry: Note Dmax for the compound shown: O=C1CCC(N2Cc3cc(OCCN4CCC(N5CCN6c7cc(-c8ccccc8O)nnc7NC[C@H]6C5)CC4)ccc3C2=O)C(=O)N1 (stereo partly shown)
Return: > 85%

Enquiry: Retrieve Dmax measured for NC1(C(=O)OCN2C(=O)CCC(N3C(=O)c4ccc(N5CCC(CN6CCC(CN7CCN8c9cc(-c%10ccccc%10O)nnc9NC[C@H]8C7)CC6)CC5)cc4C3=O)C2=O)CC1 (stereo partly shown) and print it.
Return: > 85%

Enquiry: Let me know recorded Dmax for O=C1CCC(N2Cc3cc(C4CCN(C5CCN(CCCN6CCN7c8cc(-c9ccccc9O)nnc8NC[C@H]7C6)C5)CC4)ccc3C2=O)C(=O)N1 (stereo partly shown) , thanks.
Return: 75 to 85%

Enquiry: Dear colleague, please send me the reported Dmax for O=C1CCC(N2C(=O)c3cccc(NCCCN4CCC(N5CCN6c7cc(-c8ccccc8O)nnc7NC[C@H]6C5)CC4)c3C2=O)C(=O)N1 (stereo partly shown) when you can.
Return: > 85%

Enquiry: Query Dmax for O=C1CCC(N2Cc3ccc(N4CC[C@H](CN5CCN(C(=O)N6CCN7c8cc(-c9ccccc9O)nnc8NC[C@H]7C6)CC5)[C@@H](F)C4)cc3C2=O)C(=O)N1 (stereo partly shown)
Return: > 85%

Enquiry: Specify measured Dmax for O=C1CCC(N2C(=O)c3ccc(N4CCC(CN5C[C@H]6C[C@H](CN7CCN8c9cc(-c%10ccccc%10O)nnc9NC[C@H]8C7)C[C@H]6C5)CC4)cc3C2=O)C(=O)N1 (stereo partly shown) .
Return: > 85%

Enquiry: Supply recorded Dmax for O=C1CCC(N2Cc3cc(N4CCN(CC5CCN(CCN6CCN7c8cc(-c9ccccc9O)nnc8NC[C@H]7C6)CC5)CC4)ccc3C2=O)C(=O)N1 (stereo partly shown) here.
Return: > 85%

Enquiry: Provide Dmax value for the following compound: O=C1CCC(N2Cc3cc(CCN4CCC(N5CCC(N6CCN7c8cc(-c9ccccc9O)nnc8NC[C@H]7C6)CC5)CC4)ccc3C2=O)C(=O)N1 (stereo partly shown)
Return: > 85%

Enquiry: Report measured Dmax; entry is O=C1CCC(N2C(=O)c3ccc(N4CCC(CN5CCC(O)(CN6CCN7c8cc(-c9ccccc9O)nnc8NC[C@H]7C6)CC5)CC4)cc3C2=O)C(=O)N1 (stereo partly shown)
Return: > 85%

Enquiry: Please give the documented Dmax of O=C1CCC(N2C(=O)c3ccc(N4CCC5(CN6CCC(CN7CCN8c9cc(-c%10ccccc%10O)nnc9NC[C@H]8C7)CC6)CC5C4)cc3C2=O)C(=O)N1 (stereo partly shown)
Return: 75 to 85%

Enquiry: Return the recorded Dmax value; entry: O=C1CCC(N2Cc3ccc(N4CCC(CN5CCN(C(=O)N6CCN7c8cc(-c9ccccc9O)nnc8NC[C@H]7C6)C6(CC6)C5)CC4)cc3C2=O)C(=O)N1 (stereo partly shown)
Return: > 85%

// data source = patent US12448389B2
